assayTarget: Delta-type opioid receptor (Homo sapiens, UniProt P41143)
Sequence (P41143 whole entry): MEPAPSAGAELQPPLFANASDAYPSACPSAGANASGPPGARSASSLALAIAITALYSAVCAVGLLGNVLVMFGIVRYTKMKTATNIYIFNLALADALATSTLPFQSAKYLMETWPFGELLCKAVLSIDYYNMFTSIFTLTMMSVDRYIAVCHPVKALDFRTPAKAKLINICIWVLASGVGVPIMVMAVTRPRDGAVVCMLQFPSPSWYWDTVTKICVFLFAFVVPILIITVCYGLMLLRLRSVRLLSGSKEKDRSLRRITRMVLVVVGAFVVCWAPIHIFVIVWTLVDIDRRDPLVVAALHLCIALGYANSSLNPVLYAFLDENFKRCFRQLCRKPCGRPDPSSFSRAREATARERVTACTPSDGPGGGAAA
protocolSummary: Agonist activity at human delta opioid receptor expressed in CHO cell membrane by [35S]GTP-gamma-S binding assay
Assay type: functional, cell membranes
readout: Emax (%)
Give bare numbers, in %.

Worked examples, 4 compounds total:
{"molecularString": "COc1ccc(-c2ccc(CCNC(=O)c3ccc4c(c3)[C@@]3(C)CCN(CC5CC5)C(C4)[C@@H]3C)cc2)cc1", "readout": "Emax", "unitText": "%", "numericValue": 70}
{"molecularString": "C[C@H]1C2Cc3ccc(C(=O)NCCc4ccc(Br)cc4)cc3[C@@]1(C)CCN2CC1CC1", "readout": "Emax", "unitText": "%", "numericValue": 120}
{"molecularString": "C[C@H]1C2Cc3ccc(C(=O)NCCc4cccc(-c5ccccc5)c4)cc3[C@@]1(C)CCN2CC1CC1", "readout": "Emax", "unitText": "%", "numericValue": 43}
{"molecularString": "C[C@H]1C2Cc3ccc(C(=O)NCCc4ccc(-c5ccc(Cl)cc5)cc4)cc3[C@@]1(C)CCN2CC1CC1", "readout": "Emax", "unitText": "%", "numericValue": 45}

C[C@H]1C2Cc3ccc(C(=O)NCCc4cccc(Br)c4)cc3[C@@]1(C)CCN2CC1CC1 yielded Emax of 85

###

assayTarget: Kappa-type opioid receptor (Homo sapiens, UniProt P41145)
Sequence (P41145 whole entry): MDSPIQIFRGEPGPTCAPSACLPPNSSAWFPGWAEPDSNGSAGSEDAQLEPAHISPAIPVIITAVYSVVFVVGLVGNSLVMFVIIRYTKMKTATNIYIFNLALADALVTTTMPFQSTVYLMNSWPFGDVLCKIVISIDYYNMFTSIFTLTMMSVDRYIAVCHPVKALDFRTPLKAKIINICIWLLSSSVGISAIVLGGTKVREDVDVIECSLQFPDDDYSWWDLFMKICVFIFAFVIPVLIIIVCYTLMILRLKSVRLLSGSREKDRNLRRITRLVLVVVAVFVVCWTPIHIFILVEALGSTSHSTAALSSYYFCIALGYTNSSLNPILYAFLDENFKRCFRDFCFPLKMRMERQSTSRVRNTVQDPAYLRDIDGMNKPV
protocolSummary: Agonist activity at human kappa opioid receptor expressed in CHO cell membrane by [35S]GTP-gamma-S binding assay
Record form. Attribute: pEC50. Fill in for each entry.
Give bare numbers, as −log10 of the molar value.

{"molecularString": "C[C@H]1C2Cc3ccc(C(=O)NCCc4ccc(-c5ccc(Cl)cc5)cc4)cc3[C@@]1(C)CCN2CC1CC1", "pEC50": 8.19}

State the recorded pEC50 for every item in the following list.
1. C[C@H]1C2Cc3ccc(C(=O)NCCc4cccc(Br)c4)cc3[C@@]1(C)CCN2CC1CC1
2. C[C@H]1C2Cc3ccc(C(=O)NCCc4cccc(-c5ccccc5)c4)cc3[C@@]1(C)CCN2CC1CC1
3. C[C@H]1C2Cc3ccc(C(=O)NCCCc4ccc5ccccc5c4)cc3[C@@]1(C)CCN2CC1CC1
4. C[C@H]1C2Cc3ccc(C(=O)NCCc4ccccc4-c4ccccc4)cc3[C@@]1(C)CCN2CC1CC1
5. C[C@H]1C2Cc3ccc(C(=O)NCCc4ccc(Br)cc4)cc3[C@@]1(C)CCN2CC1CC1
6. COc1ccc(-c2ccc(CCNC(=O)c3ccc4c(c3)[C@@]3(C)CCN(CC5CC5)C(C4)[C@@H]3C)cc2)cc1

Completion:
1: 8.34; 2: 7.92; 3: 8.20; 4: 7.38; 5: 7.70; 6: 8.96

###

assayTarget: UniProt:P35372
Sequence (P35372 whole entry): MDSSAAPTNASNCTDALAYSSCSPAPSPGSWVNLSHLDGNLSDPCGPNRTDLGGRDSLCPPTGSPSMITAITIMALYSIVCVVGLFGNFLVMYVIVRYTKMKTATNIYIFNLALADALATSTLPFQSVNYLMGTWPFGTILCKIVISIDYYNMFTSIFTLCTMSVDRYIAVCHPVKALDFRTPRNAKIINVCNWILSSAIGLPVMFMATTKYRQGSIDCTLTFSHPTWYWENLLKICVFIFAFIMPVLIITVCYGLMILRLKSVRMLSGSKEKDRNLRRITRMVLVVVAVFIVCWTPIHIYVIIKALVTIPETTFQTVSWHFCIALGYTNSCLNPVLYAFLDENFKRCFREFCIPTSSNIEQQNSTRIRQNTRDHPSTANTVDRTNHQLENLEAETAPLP
protocolSummary: Agonist activity at human mu opioid receptor expressed in CHO cell membrane by [35S]GTPgammaS binding assay
readout: EC50 (nM)
Answers are plain numbers, in nM.

Worked examples, 3 compounds total:
{"molecularString": "C[C@H]1C2Cc3ccc(C(=O)NCCc4cccc(-c5ccccc5)c4)cc3[C@@]1(C)CCN2CC1CC1", "assayTarget": "UniProt:P35372", "EC50, nM": 6.8}
{"molecularString": "C[C@H]1C2Cc3ccc(C(=O)NCCCc4ccc5ccccc5c4)cc3[C@@]1(C)CCN2CC1CC1", "assayTarget": "UniProt:P35372", "EC50, nM": 24}
{"molecularString": "C[C@H]1C2Cc3ccc(C(=O)NCCc4cccc(Br)c4)cc3[C@@]1(C)CCN2CC1CC1", "assayTarget": "UniProt:P35372", "EC50, nM": 5.6}

C[C@H]1C2Cc3ccc(C(=O)NCCc4ccccc4-c4ccccc4)cc3[C@@]1(C)CCN2CC1CC1 yielded EC50 of 12

The reported measurements were obtained from ChEMBL document CHEMBL1140563.
